# measuredOn: IGFR-1 (Homo sapiens, UniProt P08069)
# Construct: Kinases are expressed as either kinase domains or full length constructs; made in house
# Sequence (P08069 31-1367): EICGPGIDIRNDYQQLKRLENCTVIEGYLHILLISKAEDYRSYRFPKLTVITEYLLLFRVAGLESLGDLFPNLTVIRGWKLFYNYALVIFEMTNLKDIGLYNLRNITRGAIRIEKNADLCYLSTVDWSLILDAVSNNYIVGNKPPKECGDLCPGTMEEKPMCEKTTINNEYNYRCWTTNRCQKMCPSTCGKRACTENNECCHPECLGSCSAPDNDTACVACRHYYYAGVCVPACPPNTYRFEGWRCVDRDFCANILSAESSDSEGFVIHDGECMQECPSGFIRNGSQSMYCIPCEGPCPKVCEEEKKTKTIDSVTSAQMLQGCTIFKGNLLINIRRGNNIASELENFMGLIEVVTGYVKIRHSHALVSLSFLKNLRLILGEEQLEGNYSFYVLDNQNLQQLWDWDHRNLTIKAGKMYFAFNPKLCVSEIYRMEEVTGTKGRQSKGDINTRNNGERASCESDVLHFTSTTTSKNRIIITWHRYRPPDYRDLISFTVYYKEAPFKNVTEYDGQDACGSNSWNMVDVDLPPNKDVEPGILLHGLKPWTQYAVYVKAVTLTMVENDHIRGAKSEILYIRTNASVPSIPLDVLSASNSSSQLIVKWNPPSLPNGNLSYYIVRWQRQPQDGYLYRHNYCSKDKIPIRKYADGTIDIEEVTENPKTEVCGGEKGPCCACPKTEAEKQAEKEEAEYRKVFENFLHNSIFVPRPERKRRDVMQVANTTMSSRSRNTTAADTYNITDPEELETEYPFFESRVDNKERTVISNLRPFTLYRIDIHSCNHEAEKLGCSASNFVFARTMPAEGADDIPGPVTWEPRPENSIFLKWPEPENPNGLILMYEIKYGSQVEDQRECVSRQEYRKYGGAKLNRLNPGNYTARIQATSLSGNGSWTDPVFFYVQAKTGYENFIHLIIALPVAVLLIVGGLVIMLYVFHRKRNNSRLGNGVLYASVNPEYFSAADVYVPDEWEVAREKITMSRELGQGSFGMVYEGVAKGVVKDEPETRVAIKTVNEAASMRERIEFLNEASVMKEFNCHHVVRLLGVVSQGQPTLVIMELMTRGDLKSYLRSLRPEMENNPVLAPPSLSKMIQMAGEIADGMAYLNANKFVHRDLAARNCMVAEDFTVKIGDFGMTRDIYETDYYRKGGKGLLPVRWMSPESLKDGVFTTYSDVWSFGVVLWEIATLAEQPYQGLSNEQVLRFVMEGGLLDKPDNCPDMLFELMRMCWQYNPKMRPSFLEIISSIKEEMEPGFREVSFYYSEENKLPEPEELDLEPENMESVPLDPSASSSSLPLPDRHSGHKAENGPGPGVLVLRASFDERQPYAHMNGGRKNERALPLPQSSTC
# protocolDescription: Kinase inhibition assay (33P transfer), IGFR-1
# Format: biochemical
# runConditions: Table 2, kinase inhibition class
pIC50: −log10 of the molar value.
parameterMeasured: pIC50

Lab note: need pIC50 with IGFR-1 (Homo sapiens, UniProt P08069) for entry COc1cc(Nc2ncnc(Nc3ccc(OCc4ccccc4)cc3)n2)cc(OC)c1OC , please look it up.
< 5.01

Lab note: need pIC50 with IGFR-1 (Homo sapiens, UniProt P08069) for entry COc1ccc(Nc2ncnc(Nc3cc(OC)c(OC)c(OC)c3)n2)cc1OC , please look it up.
< 4.96

Lab note: need pIC50 with IGFR-1 (Homo sapiens, UniProt P08069) for entry COc1ccc(Nc2ncnc(Nc3ccc(N(C)C)cc3)n2)cc1OC , please look it up.
5.02 to 5.18

Lab note: need pIC50 with IGFR-1 (Homo sapiens, UniProt P08069) for entry COC(=O)c1cc(Nc2ncnc(Nc3cc(-c4ccco4)n[nH]3)n2)cc(C(=O)OC)c1 , please look it up.
5.26 to 6.04

Lab note: need pIC50 with IGFR-1 (Homo sapiens, UniProt P08069) for entry COCCOc1ccc(Nc2ncnc(Nc3cc(-c4ccco4)n[nH]3)n2)cc1OCCOC , please look it up.
> 6.07

Lab note: need pIC50 with IGFR-1 (Homo sapiens, UniProt P08069) for entry O=C1OCc2ccc(Nc3ncnc(Nc4cc(-c5ccco5)n[nH]4)n3)cc21 , please look it up.
5.19 to 5.97

Lab note: need pIC50 with IGFR-1 (Homo sapiens, UniProt P08069) for entry COc1ccc(Sc2ncnc(Nc3cc(OC)c(OC)c(OC)c3)n2)cc1 , please look it up.
5.22 to 6.00

Lab note: need pIC50 with IGFR-1 (Homo sapiens, UniProt P08069) for entry COc1ccc(Nc2ncnc(Nc3ccc(F)c(Cl)c3)n2)cc1OC , please look it up.
> 5.97

Lab note: need pIC50 with IGFR-1 (Homo sapiens, UniProt P08069) for entry COc1cc(Nc2ncnc(Nc3ccc4[nH]ccc4c3)n2)cc(OC)c1OC , please look it up.
> 5.99

Lab note: need pIC50 with IGFR-1 (Homo sapiens, UniProt P08069) for entry COc1cc(Nc2ncnc(Nc3ccc4c(c3)OCO4)n2)cc(OC)c1OC , please look it up.
> 6.00

Lab note: need pIC50 with IGFR-1 (Homo sapiens, UniProt P08069) for entry COc1cc(Nc2ncnc(Nc3nnc(-c4ccccc4)[nH]3)n2)cc(OC)c1OC , please look it up.
< 4.97

Lab note: need pIC50 with IGFR-1 (Homo sapiens, UniProt P08069) for entry COc1cc(Nc2ncnc(Nc3ccc(N)cc3)n2)cc(OC)c1OC , please look it up.
5.19 to 5.96

Lab note: need pIC50 with IGFR-1 (Homo sapiens, UniProt P08069) for entry COCCOc1ccc(Nc2ncnc(-n3c(N)nc4ccccc43)n2)cc1OC , please look it up.
> 6.01

Lab note: need pIC50 with IGFR-1 (Homo sapiens, UniProt P08069) for entry c1ccc(-c2ncnc(Nc3ccc(OCCCN4CCOCC4)cc3)n2)cc1 , please look it up.
5.21 to 5.99

Lab note: need pIC50 with IGFR-1 (Homo sapiens, UniProt P08069) for entry COc1cc(Nc2ncnc(Nc3ccc(O)cc3)n2)cc(OC)c1OC , please look it up.
5.19 to 5.97

Lab note: need pIC50 with IGFR-1 (Homo sapiens, UniProt P08069) for entry COc1cc(Nc2ncnc(-c3cc4ccccc4s3)n2)cc(OC)c1OC , please look it up.
< 4.94

Lab note: need pIC50 with IGFR-1 (Homo sapiens, UniProt P08069) for entry COc1cc(Nc2ncnc(-n3c(NCc4ccccn4)nc4ccccc43)n2)cc(OC)c1OC , please look it up.
< 5.03

Lab note: need pIC50 with IGFR-1 (Homo sapiens, UniProt P08069) for entry COC(=O)c1cccc(Nc2nc3ccccc3n2-c2ncnc(Nc3cc(OC)c(OC)c(OC)c3)n2)c1 , please look it up.
< 5.07

Lab note: need pIC50 with IGFR-1 (Homo sapiens, UniProt P08069) for entry COc1ccc(Nc2ccc(Nc3ncnc(Nc4cc(OC)c(OC)c(OC)c4)n3)cc2)cc1 , please look it up.
5.30 to 6.07

Lab note: need pIC50 with IGFR-1 (Homo sapiens, UniProt P08069) for entry COc1cc(Nc2ncnc(-c3ccncc3)n2)cc(OC)c1OC , please look it up.
< 4.88

Lab note: need pIC50 with IGFR-1 (Homo sapiens, UniProt P08069) for entry COc1ccc(Nc2ncnc(Nc3ccc4[nH]ccc4c3)n2)cc1OC , please look it up.
5.18 to 5.96

Lab note: need pIC50 with IGFR-1 (Homo sapiens, UniProt P08069) for entry COc1cc(Nc2ncnc(-n3c(Nc4ccccc4C)nc4ccccc43)n2)cc(OC)c1OC , please look it up.
< 5.03

Lab note: need pIC50 with IGFR-1 (Homo sapiens, UniProt P08069) for entry COc1cc(Nc2ncnc(-n3c(Nc4ccc(C)cc4)nc4ccccc43)n2)cc(OC)c1OC , please look it up.
< 5.03

Lab note: need pIC50 with IGFR-1 (Homo sapiens, UniProt P08069) for entry c1coc(-c2cc(Nc3ncnc(Nc4ccc(N5CCOCC5)cc4)n3)[nH]n2)c1 , please look it up.
> 6.00

Lab note: need pIC50 with IGFR-1 (Homo sapiens, UniProt P08069) for entry COc1ccc(CNc2ncnc(Nc3cc(OC)c(OC)c(OC)c3)n2)cc1 , please look it up.
< 4.95

Lab note: need pIC50 with IGFR-1 (Homo sapiens, UniProt P08069) for entry COc1cc(Nc2ncnc(Nc3[nH]ncc3-c3cccs3)n2)cc(OC)c1OC , please look it up.
< 4.98

Lab note: need pIC50 with IGFR-1 (Homo sapiens, UniProt P08069) for entry COc1ccc(Nc2ncnc(-n3c(N)nc4ccccc43)n2)cc1O , please look it up.
> 5.94

Lab note: need pIC50 with IGFR-1 (Homo sapiens, UniProt P08069) for entry COc1cc(Nc2ncnc(N(c3ccc(Cl)cc3)c3nc4ccccc4[nH]3)n2)cc(OC)c1OC , please look it up.
< 5.05

Lab note: need pIC50 with IGFR-1 (Homo sapiens, UniProt P08069) for entry COc1cc(Nc2ncnc(-c3c(O)[nH]c4ccccc34)n2)cc(OC)c1OC , please look it up.
5.05 to 5.21

Lab note: need pIC50 with IGFR-1 (Homo sapiens, UniProt P08069) for entry COc1cc(Nc2ncnc(-n3ccc4cc(Cl)ccc43)n2)cc(OC)c1OC , please look it up.
< 4.96

Lab note: need pIC50 with IGFR-1 (Homo sapiens, UniProt P08069) for entry COc1cc(Nc2ncnc(Nc3cc(OC)c(OC)c(OC)c3)n2)cc(OC)c1OC , please look it up.
5.27 to 6.04

Lab note: need pIC50 with IGFR-1 (Homo sapiens, UniProt P08069) for entry COc1cc(Nc2ncnc(Nc3cc(F)ccc3F)n2)cc(OC)c1OC , please look it up.
> 5.99

Lab note: need pIC50 with IGFR-1 (Homo sapiens, UniProt P08069) for entry COC(=O)c1ccc(Nc2ncnc(-c3ccccc3)n2)cc1 , please look it up.
< 4.83

Lab note: need pIC50 with IGFR-1 (Homo sapiens, UniProt P08069) for entry Cc1cccc(Nc2ncnc(Nc3ccc4[nH]ccc4c3)n2)c1 , please look it up.
5.12 to 5.90

Lab note: need pIC50 with IGFR-1 (Homo sapiens, UniProt P08069) for entry Cc1cccc(Nc2ncnc(Nc3ccc(O)cc3)n2)c1 , please look it up.
5.09 to 5.87
